# Test system: B16
# experiment: Cytotoxicity against mouse B16 cells […] by MTT assay
# Assay type: functional, cell-based
value type: IC50 (µM)
Form entry: value (µM) — number only.

Please review the following examples before continuing.
1) COc1cc([C@@H]2c3cc4c(cc3[C@@H](NC(=O)c3cc(-c5ccc(F)cc5)on3)[C@H]3COC(=O)[C@H]23)OCO4)cc(OC)c1OC | 23.5
2) COc1cc([C@@H]2c3cc4c(cc3[C@@H](NC(=O)c3cc(-c5ccc(F)c(F)c5)[nH]n3)[C@H]3COC(=O)[C@H]23)OCO4)cc(OC)c1OC | 25.6
3) COc1cc([C@@H]2c3cc4c(cc3[C@@H](NC(=O)c3cc(-c5ccc(Cl)c(Cl)c5)[nH]n3)[C@H]3COC(=O)[C@H]23)OCO4)cc(OC)c1OC | 9.5
4) COc1cc([C@@H]2c3cc4c(cc3[C@@H](NC(=O)c3cc(-c5ccc([N+](=O)[O-])cc5)on3)[C@H]3COC(=O)[C@H]23)OCO4)cc(OC)c1OC | 16.8
5) COc1cc([C@@H]2c3cc4c(cc3[C@@H](NC(=O)c3cc(-c5ccc(C)cc5)[nH]n3)[C@H]3COC(=O)[C@H]23)OCO4)cc(OC)c1OC | 16.6

Item COc1ccc(-c2cc(C(=O)N[C@@H]3c4cc5c(cc4[C@@H](c4cc(OC)c(OC)c(OC)c4)[C@H]4C(=O)OC[C@@H]43)OCO5)n[nH]2)cc1 with B16 - IC50?
9.5

---

Property: IC50; scope: individual compounds
# System: B16
# experiment: Cytotoxicity against mouse B16 cells […] by MTT assay
# Assay type: functional, cell-based
Numbers only; they are read as µM.

Example entries and their recorded answers appear below.
1) COc1cc([C@@H]2c3cc4c(cc3[C@@H](NC(=O)c3cc(-c5ccc(C)cc5)on3)[C@H]3COC(=O)[C@H]23)OCO4)cc(OC)c1OC | 20.3
2) COc1cc([C@@H]2c3cc4c(cc3[C@@H](NC(=O)c3cc(-c5ccccc5)[nH]n3)[C@H]3COC(=O)[C@H]23)OCO4)cc(OC)c1OC | 16.3

Moving on to the next compound.
So what does the record say about IC50 for COc1cc([C@@H]2c3cc4c(cc3[C@@H](NC(=O)c3cc(-c5ccccc5)on3)[C@H]3COC(=O)[C@H]23)OCO4)cc(OC)c1OC ?
16.3

---

# Test system: B16
# experiment: Cytotoxicity against mouse B16 cells […] by MTT assay
# Type: functional, cell-based
Recorded IC50 by entry
The answer is to be given in µM; state only the numeric part.

Reference set (2 entries):
1. COc1cc(-c2cc(C(=O)N[C@@H]3c4cc5c(cc4[C@@H](c4cc(OC)c(OC)c(OC)c4)[C@H]4C(=O)OC[C@@H]43)OCO5)nc3cc(-c4ccccc4)nn23)cc(OC)c1OC | 12.7
2. COc1cc(-c2cc(C(=O)N[C@@H]3c4cc5c(cc4[C@@H](c4cc(OC)c(OC)c(OC)c4)[C@H]4C(=O)OC[C@@H]43)OCO5)no2)cc(OC)c1OC | 23.4

Query: IC50; subject: COc1ccc(-c2cc(C(=O)N[C@@H]3c4cc5c(cc4[C@@H](c4cc(OC)c(OC)c(OC)c4)[C@H]4C(=O)OC[C@@H]43)OCO5)no2)cc1
22.5

Recorded IC50 for COc1cc([C@@H]2c3cc4c(cc3[C@H](O)[C@H]3COC(=O)[C@H]23)OCO4)cc(OC)c1OC , please?
2.5

// query IC50 value for entry COc1ccc(-c2cc(C(=O)N[C@@H]3c4cc5c(cc4[C@@H](c4cc(OC)c(OC)c(OC)c4)[C@H]4C(=O)OC[C@@H]43)OCO5)no2)cc1OC
12.7

Please give the measured IC50 for this molecule: COc1cc([C@@H]2c3cc4c(cc3[C@@H](NC(=O)c3cc(-c5ccc(F)cc5)[nH]n3)[C@H]3COC(=O)[C@H]23)OCO4)cc(OC)c1OC
26.1

Give its IC50 value. Item: COc1cc(-c2cc(C(=O)N[C@@H]3c4cc5c(cc4[C@@H](c4cc(OC)c(OC)c(OC)c4)[C@H]4C(=O)OC[C@@H]43)OCO5)n[nH]2)cc(OC)c1OC
18.3

For COc1cc([C@@H]2c3cc4c(cc3[C@@H](O[C@@H]3O[C@@H]5CO[C@@H](C)O[C@H]5[C@H](O)[C@H]3O)[C@H]3COC(=O)[C@H]23)OCO4)cc(OC)c1O [ETOPOSIDE] , what is its reported IC50?
1.39

Could you share which IC50 value was measured for COc1cc([C@@H]2c3cc4c(cc3[C@@H](NC(=O)c3cc(-c5ccc([N+](=O)[O-])cc5)n5nc(-c6ccccc6)cc5n3)[C@H]3COC(=O)[C@H]23)OCO4)cc(OC)c1OC ?
18.4

Looking for the measured IC50 of COc1cc([C@@H]2c3cc4c(cc3[C@@H](NC(=O)c3cc(-c5ccc(F)c(F)c5)on3)[C@H]3COC(=O)[C@H]23)OCO4)cc(OC)c1OC , can you help?
27.5

State the recorded IC50 for this entry: COc1ccc(-c2cc(C(=O)N[C@@H]3c4cc5c(cc4[C@@H](c4cc(OC)c(OC)c(OC)c4)[C@H]4C(=O)OC[C@@H]43)OCO5)n[nH]2)cc1OC
45.3

---

Measured IC50 accompanies every entry in the list below.
# System: B16
# experiment: Cytotoxicity against mouse B16 cells […] by MTT assay
# Assay type: functional, cell-based
Output spec: scalar in µM, unitless text.

1) COc1ccc(-c2cc(C(=O)N[C@@H]3c4cc5c(cc4[C@@H](c4cc(OC)c(OC)c(OC)c4)[C@H]4C(=O)OC[C@@H]43)OCO5)nc3cc(-c4ccccc4)nn23)cc1 | 18.3
2) COc1cc([C@@H]2c3cc4c(cc3[C@@H](NC(=O)c3cc(-c5ccc(Cl)c(Cl)c5)on3)[C@H]3COC(=O)[C@H]23)OCO4)cc(OC)c1OC | 22.7

What IC50 value was documented for this compound, COc1ccc(-c2cc(C(=O)N[C@@H]3c4cc5c(cc4[C@@H](c4cc(OC)c(OC)c(OC)c4)[C@H]4C(=O)OC[C@@H]43)OCO5)nc3cc(-c4ccccc4)nn23)cc1OC ?
10.7
